Reported T/C is given for each of the following compounds.
Tested on: BDF1 mice, intracerebral L1210 leukemia, survival T/C
experiment.description: NCI In Vivo Anticancer Drug Screen. Data for tumor model L1210 Leukemia (intracerebral) in B6D2F1 (BDF1) mice
measurement.conditions: endpoint: mean survival time; dose: 40.0 mg/kg/injection; schedule: Q01DX009 (sc); vehicle: saline; higher = longer survival
Inconclusive results and toxic doses are left out.

Some compounds with recorded T/C:
CS(=O)(=O)Nc1ccc(Nc2c3ccccc3nc3cc(Cl)ccc23)cc1	114 % of control
CS(=O)(=O)Nc1ccc(Nc2c3ccccc3nc3ccccc23)cc1	90 % of control
Cc1cccc2c(Nc3ccc(NS(C)(=O)=O)cc3)c3ccccc3nc12	97 % of control

Data request: # get_value(readout='T/C', item= Cc1cccc2c(Nc3ccc(NS(C)(=O)=O)cc3)c3ccc([N+](=O)[O-])cc3nc12 )
Data returned: 96 % of control

* * *

Test system: BDF1 mice, intracerebral L1210 leukemia, survival T/C
experiment.description: NCI In Vivo Anticancer Drug Screen. Data for tumor model L1210 Leukemia (intracerebral) in B6D2F1 (BDF1) mice
measurement.conditions: endpoint: mean survival time; dose: 150.0 mg/kg/injection; schedule: Q01DX001 (ip); vehicle: carboxymethylcellulose (CMC)
Inconclusive results and toxic doses are left out. How the source made its calls: active means survival T/C of 150% or more; inactive means T/C below 125% in these data.
Choose the fitting class; nothing outside True = active, False = inactive is accepted.

N#Cc1ccc(NC(=O)N(CCCl)N=O)cc1	False
CN(N=O)C(=O)Nc1ccc(F)cc1	False
CN(N=O)C(=O)NCCCNC(=O)N(C)N=O	False
CCN(N=O)C(N)=O	False
CN(N=O)C(=O)Nc1ccccc1	False
CCOC(=O)c1ccc(NC(=O)N(C)N=O)cc1	False
O=NN1CCCNC1=O	True

Here's the next entry for you.
Data request: # outcome recorded in this test, key = O=NN(CCCl)C(=O)N[C@@H]1CCCC[C@H]1NC(=O)N(CCCl)N=O
Data returned: True

* * *

Test system: BDF1 mice, intracerebral L1210 leukemia, survival T/C
experiment.description: NCI In Vivo Anticancer Drug Screen. Data for tumor model L1210 Leukemia (intracerebral) in B6D2F1 (BDF1) mice
measurement.conditions: endpoint: mean survival time; dose: 6.0 mg/kg/injection; schedule: Q01DX001 (ip); vehicle: carboxymethylcellulose (CMC)
Toxic doses and inconclusive results are not listed. Rule for the calls: active = survival T/C of 150% or more; inactive = T/C below 125% in these data.
Parameter call: string, one of active, inactive

Here are 3 compounds together with their reported answers.
O=NN(CCCl)C(=O)Nc1ccc(CC(=O)O)cc1	inactive
CCOC(=O)c1ccc(NC(=O)N(CCCl)N=O)cc1	inactive
O=NN(CCCl)C(=O)Nc1ccc(C(=O)O)cc1	inactive

Data request: So what was the verdict on O=CC(NC(=O)N(CCCl)N=O)C(O)C(O)C(O)CO (stereo unspecified) in this test?
Data returned: inactive

Data request: Lab log entry: O=NN(CCCl)C(=O)NC1CCSCC1 — outcome as called in the assay?
Data returned: active

Data request: Hi, do you know how O=NN(CCCl)C(=O)Nc1cccc2cccnc12 came out in this test?
Data returned: inactive

* * *

Tested on: BDF1 mice, intracerebral L1210 leukemia, survival T/C
experiment.description: NCI In Vivo Anticancer Drug Screen. Data for tumor model L1210 Leukemia (intracerebral) in B6D2F1 (BDF1) mice
measurement.conditions: endpoint: mean survival time; dose: 5.0 mg/kg/injection; schedule: Q01DX009 (ip); vehicle: saline
Toxic doses and inconclusive results are not listed. Rule for the calls: active = survival T/C of 150% or more; inactive = T/C below 125% in these data.
Pick one and only one: t (active), f (inactive)

Here are 2 compounds together with their reported answers.
COc1cc(NS(C)(=O)=O)ccc1Nc1c2ccc([N+](=O)[O-])cc2nc2c(C)cccc12	f
CC(=O)NC1=C(N2CC2C)C(=O)C(NC(C)=O)=C(N2CC2C)C1=O (stereo not given)	f

Data request: Which result was noted for this compound in the test: CN(Cc1cnc2nc(N)nc(N)c2n1)c1ccc(C(=O)N[C@@H](CCC(=O)O)C(=O)O)cc1
Data returned: f

Data request: Recorded test outcome, item Cc1nc(N)nc(N)c1-c1ccc(Cl)c(Cl)c1
Data returned: f

Data request: Lab log entry: CC1CCC(NC(=O)N(CCCl)N=O)CC1 (stereo not given) — outcome as called in the assay?
Data returned: t

* * *

Tested on: BDF1 mice, intracerebral L1210 leukemia, survival T/C
experiment.description: NCI In Vivo Anticancer Drug Screen. Data for tumor model L1210 Leukemia (intracerebral) in B6D2F1 (BDF1) mice
measurement.conditions: endpoint: mean survival time; dose: 2.0 mg/kg/injection; schedule: Q01DX005 (ip); vehicle: saline; higher = longer survival
Toxic doses and inconclusive results are not listed.
readout.name: T/C

COc1cccc2c1C(=O)c1c(O)c3c(c(O)c1C2=O)C[C@@](O)(C(=O)CO)C[C@@H]3OC1CC(N)C(O)C(C)O1 (some centres undefined)	107 % of control
CCN(CC)CCNc1ccc(CO)c2sc3ccccc3c(=O)c12	96 % of control
CCCOC1=C(N2CC2)C(=O)C(OCCC)=C(N2CC2)C1=O	108 % of control

Please turn your attention to the following entry.
Data request: Query: T/C; subject: CC[C@H]1CN2CCc3cc(OC)c(OC)cc3[C@@H]2C[C@@H]1C[C@H]1NCCc2cc(OC)c(OC)cc21
Data returned: 100 % of control

* * *

Test system: BDF1 mice, intracerebral L1210 leukemia, survival T/C
experiment.description: NCI In Vivo Anticancer Drug Screen. Data for tumor model L1210 Leukemia (intracerebral) in B6D2F1 (BDF1) mice
measurement.conditions: endpoint: mean survival time; dose: 125.0 mg/kg/injection; schedule: Q01DX001 (ip); vehicle: carboxymethylcellulose (CMC); higher = longer survival
Toxic doses and inconclusive results are not listed.
Some molecules, each annotated with its measured T/C.

Previously resolved entries follow.
CCn1cnc2c(SC3CCCC3)ncnc21	106 % of control
CC1(NC(=O)N(CCCl)N=O)CCCC1	347 % of control

Data request: API: value(readout=T/C, system=BDF1 mice, intracerebral L1210 leukemia, survival T/C) for record CCCCn1cnc2c(SC3CCCC3)ncnc21
Data returned: 101 % of control

Data request: What value of T/C on BDF1 mice, intracerebral L1210 leukemia, survival T/C does O=NN(CCCl)C(=O)Nc1ccc2c(c1)CCCC2 have?
Data returned: 157 % of control

* * *

System: BDF1 mice, intracerebral L1210 leukemia, survival T/C
experiment.description: NCI In Vivo Anticancer Drug Screen. Data for tumor model L1210 Leukemia (intracerebral) in B6D2F1 (BDF1) mice
measurement.conditions: endpoint: mean survival time; dose: 0.5 mg/kg/injection; schedule: Q01DX009 (ip); vehicle: saline; higher = longer survival
Procedure: The antitumor activity of compounds was measured in mice bearing transplantable tumors. Survival or tumor size were measured and the results are expressed as the measurement made in the treated group (T) divided by the measurement made in the vehicle treated control group (C). The tumor model used in this assay is L1210 Leukemia (intracerebral) in B6D2F1 (BDF1) mice
Inconclusive results and toxic doses are left out.
readout.name: T/C

Guide cases for T/C, answers given:
CCCOC1=C(N2CC2)C(=O)C(OCCC)=C(N2CC2)C1=O	113 % of control
O=C1N[C@@H]([C@H]2CC[C@H](Cl)CN2)C(=O)N[C@H]1[C@H]1CC[C@H](Cl)CN1	110 % of control
COc1cccc2c1C(=O)c1c(O)c3c(c(O)c1C2=O)C[C@@](O)(C(=O)CO)C[C@@H]3OC1CC(N)C(O)C(C)O1 (some centres undefined)	101 % of control

--- query ---
Data request: Tell me the measured T/C of CCC(=O)NC1=C(N2CC2)C(=O)C(NC(=O)CC)=C(N2CC2)C1=O , please.
Data returned: 105 % of control

* * *

System: BDF1 mice, intracerebral L1210 leukemia, survival T/C
experiment.description: NCI In Vivo Anticancer Drug Screen. Data for tumor model L1210 Leukemia (intracerebral) in B6D2F1 (BDF1) mice
measurement.conditions: endpoint: mean survival time; dose: 75.0 mg/kg/injection; schedule: Q01DX001 (ip); vehicle: carboxymethylcellulose (CMC)
Toxic doses and inconclusive results are not listed. The calls were made as follows: active = survival T/C of 150% or more; inactive = T/C below 125% in these data.
Can you answer with just one of these options? active, inactive

Known results for compounds:
O=NN(CCCl)C(=O)NC1CCCCC1	active
CN(N=O)C(=O)NC(N)=O	inactive
O=NN(CCCl)C(=O)Nc1ccc(C(F)(F)F)cc1	inactive

Data request: Check the results log: what was the call for N#Cc1ccc(NC(=O)N(CCCl)N=O)cc1 ?
Data returned: inactive

Data request: For O=NN1CCCNC1=O , what call appears in the results of this test?
Data returned: inactive

* * *

Tested on: BDF1 mice, intracerebral L1210 leukemia, survival T/C
experiment.description: NCI In Vivo Anticancer Drug Screen. Data for tumor model L1210 Leukemia (intracerebral) in B6D2F1 (BDF1) mice
measurement.conditions: endpoint: mean survival time; dose: 26.0 mg/kg/injection; schedule: Q01DX001 (ip); vehicle: carboxymethylcellulose (CMC)
Inconclusive results and toxic doses are left out. How the source made its calls: active means survival T/C of 150% or more; inactive means T/C below 125% in these data.
# output must be one of True = active, False = inactive

Would you please look over these solved cases?
O=NN(CCCl)C(=O)Nc1ccc(SCC(=O)O)cc1	False
COC12C(COC(N)=O)C3=C(C(=O)C(C)=C(N)C3=O)N1CC1C2N1C (stereo not drawn)	False
O=NN(CCCl)C(=O)Nc1ccc(CC(=O)O)cc1	False

Data request: For O=NN(CCCl)C(=O)Nc1ccc(Cn2ccc(=O)[nH]c2=O)cc1 , which call appears in the assay record?
Data returned: False

Data request: I would be grateful if you could indicate the recorded call for O=NN(CCCl)C(=O)NC1CC2CCC1C2 (stereo not drawn) .
Data returned: True

Data request: // outcome(item) with item = O=NN(CCCl)C(=O)NC12CC3CC(CC(C3)C1)C2
Data returned: False

Data request: # lookup: test call for O=NN(CCCl)C(=O)Nc1cc(NC(=O)N(CCCl)N=O)cc(C(=O)O)c1
Data returned: False

Data request: I'd appreciate the recorded outcome for O=NN(CCCl)C(=O)Nc1cccc([N+](=O)[O-])c1 from this test.
Data returned: False

Hey, just so you know, these numbers are from PubChem BioAssay AID252.
